test: Oral bioavailability in Balb/c nude mouse at 50 mg/kg measured upto 24 hrs by LC/MS/MS analysis; format: ADME, organism-based; settings: in vivo
VALUE KIND: bioavailability (%)
Answers are plain numbers, in %.

Look at this molecule and give its reported bioavailability. O=C(CCCCCCC(=O)Nc1ccccc1)NO [VORINOSTAT] 8

====

I'd appreciate it if you could supply log10 of IC50 values for the items below.
Target: Protein deacetylase HDAC6 (Homo sapiens, UniProt Q9UBN7)
Sequence (Q9UBN7 whole entry): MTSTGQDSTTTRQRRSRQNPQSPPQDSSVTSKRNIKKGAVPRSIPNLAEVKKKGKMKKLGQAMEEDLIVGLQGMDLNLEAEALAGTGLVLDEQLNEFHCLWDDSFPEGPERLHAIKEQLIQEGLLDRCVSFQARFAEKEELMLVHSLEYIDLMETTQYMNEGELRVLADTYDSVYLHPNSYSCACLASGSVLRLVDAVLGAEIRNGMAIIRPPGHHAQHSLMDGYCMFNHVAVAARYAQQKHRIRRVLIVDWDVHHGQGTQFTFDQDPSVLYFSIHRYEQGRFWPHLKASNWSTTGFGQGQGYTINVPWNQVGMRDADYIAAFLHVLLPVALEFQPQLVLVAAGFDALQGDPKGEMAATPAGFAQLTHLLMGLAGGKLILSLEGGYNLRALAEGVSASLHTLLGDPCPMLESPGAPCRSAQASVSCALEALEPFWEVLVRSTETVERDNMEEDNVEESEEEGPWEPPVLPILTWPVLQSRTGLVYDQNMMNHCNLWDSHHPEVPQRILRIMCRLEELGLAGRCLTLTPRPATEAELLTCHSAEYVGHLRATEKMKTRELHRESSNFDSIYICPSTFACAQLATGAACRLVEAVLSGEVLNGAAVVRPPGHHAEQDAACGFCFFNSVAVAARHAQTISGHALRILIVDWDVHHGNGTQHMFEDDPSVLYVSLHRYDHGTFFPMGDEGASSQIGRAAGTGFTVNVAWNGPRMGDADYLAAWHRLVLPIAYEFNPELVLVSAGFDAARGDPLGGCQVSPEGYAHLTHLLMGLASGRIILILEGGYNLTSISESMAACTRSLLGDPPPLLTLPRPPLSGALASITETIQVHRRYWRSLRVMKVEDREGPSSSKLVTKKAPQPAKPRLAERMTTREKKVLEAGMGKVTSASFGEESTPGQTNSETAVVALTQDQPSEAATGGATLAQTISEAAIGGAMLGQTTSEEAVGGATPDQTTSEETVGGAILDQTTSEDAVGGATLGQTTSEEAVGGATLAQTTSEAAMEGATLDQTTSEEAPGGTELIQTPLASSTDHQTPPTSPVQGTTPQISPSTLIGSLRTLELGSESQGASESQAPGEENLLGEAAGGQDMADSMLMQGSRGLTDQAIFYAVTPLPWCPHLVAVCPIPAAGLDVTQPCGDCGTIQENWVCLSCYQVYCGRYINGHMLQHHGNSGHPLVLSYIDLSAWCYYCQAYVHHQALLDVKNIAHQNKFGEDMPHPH
Assay: Inhibition of recombinant full length human HDAC6 expressed in baculovirus infected Sf9 cells using FAM-RHKK-Ac as substrate incubated for 5 hrs by electrophoretic mobility shift assay
Field: value | Transform: log10 | Quantity: IC50 | Unit: nM

Dear colleague, could you send me log10 of IC50 for each of the items below? Thanks.
1. O=C(NO)c1ccc(N(Cc2ccccc2)C(=O)CN(Cc2c(F)c(F)c(F)c(F)c2F)S(=O)(=O)c2ccc(F)cc2)cc1
2. CN(CC(=O)N(Cc1ccc(C(C)(C)C)cc1)c1ccc(C(=O)NO)cc1)S(=O)(=O)c1ccc(F)cc1
3. CC(C)(C)c1ccc(CN(C(=O)CNS(=O)(=O)c2ccc(F)cc2)c2ccc(C(=O)NO)cc2)cc1
4. CC(=O)N(Cc1ccc(C(C)(C)C)cc1)c1ccc(C(=O)NO)cc1
5. CN(C(=O)CN(Cc1c(F)c(F)c(F)c(F)c1F)S(=O)(=O)c1ccc(F)cc1)c1ccc(C(=O)NO)cc1

1: 0.17; 2: 1.74; 3: 1.72; 4: 1.85; 5: 1.30

====

target: Histone deacetylase 5 (Homo sapiens); test: Inhibition of recombinant full length human HDAC5 expressed in baculovirus infected Sf9 cells using FAM-RHKK-TFAc as substrate incubated for 3 hrs by electrophoretic mobility shift assay
Sequence (Q9UQL6 whole entry): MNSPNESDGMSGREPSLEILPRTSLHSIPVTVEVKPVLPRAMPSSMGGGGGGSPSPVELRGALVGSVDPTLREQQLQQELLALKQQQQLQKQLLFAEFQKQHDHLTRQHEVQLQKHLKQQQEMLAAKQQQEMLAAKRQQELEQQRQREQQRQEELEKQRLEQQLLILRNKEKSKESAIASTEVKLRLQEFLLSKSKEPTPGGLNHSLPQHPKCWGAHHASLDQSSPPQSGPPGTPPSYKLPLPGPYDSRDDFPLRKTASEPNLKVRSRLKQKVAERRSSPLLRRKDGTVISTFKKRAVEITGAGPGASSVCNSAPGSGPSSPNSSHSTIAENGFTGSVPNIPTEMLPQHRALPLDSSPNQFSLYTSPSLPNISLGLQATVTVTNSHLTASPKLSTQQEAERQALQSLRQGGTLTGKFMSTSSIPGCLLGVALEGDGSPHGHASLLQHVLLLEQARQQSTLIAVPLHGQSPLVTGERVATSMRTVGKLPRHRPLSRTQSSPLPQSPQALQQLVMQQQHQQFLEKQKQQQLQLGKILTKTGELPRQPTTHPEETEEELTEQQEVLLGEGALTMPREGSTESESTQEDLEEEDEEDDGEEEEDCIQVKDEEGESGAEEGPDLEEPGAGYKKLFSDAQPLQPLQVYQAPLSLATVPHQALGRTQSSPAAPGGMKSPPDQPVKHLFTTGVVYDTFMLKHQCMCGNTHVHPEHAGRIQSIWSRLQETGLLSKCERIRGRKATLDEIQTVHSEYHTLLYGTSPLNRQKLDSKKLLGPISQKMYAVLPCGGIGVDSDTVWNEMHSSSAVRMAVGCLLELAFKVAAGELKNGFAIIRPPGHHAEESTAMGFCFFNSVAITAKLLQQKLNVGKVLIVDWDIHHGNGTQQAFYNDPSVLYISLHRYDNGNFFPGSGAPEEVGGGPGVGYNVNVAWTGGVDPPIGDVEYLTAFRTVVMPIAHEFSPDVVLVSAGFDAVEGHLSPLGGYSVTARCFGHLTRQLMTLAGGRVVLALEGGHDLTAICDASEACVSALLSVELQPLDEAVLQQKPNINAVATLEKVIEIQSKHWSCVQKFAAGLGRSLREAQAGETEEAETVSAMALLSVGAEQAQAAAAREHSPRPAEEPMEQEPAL
VALUE KIND: IC50 (nM)
Numbers only, in nM.

Look at this molecule and give its reported IC50. `Cn1cc(CNCC2CCN(c3ncc(C(=O)NO)cn3)CC2)c2ccccc21` 5.95

====

target: Histone deacetylase 4 (Homo sapiens, UniProt P56524); test: Inhibition of recombinant full length human HDAC4 expressed in baculovirus infected Sf9 cells using FAM-RHKK-TFAc as substrate incubated for 1.5 hrs by electrophoretic mobility shift assay
Sequence (P56524 whole entry): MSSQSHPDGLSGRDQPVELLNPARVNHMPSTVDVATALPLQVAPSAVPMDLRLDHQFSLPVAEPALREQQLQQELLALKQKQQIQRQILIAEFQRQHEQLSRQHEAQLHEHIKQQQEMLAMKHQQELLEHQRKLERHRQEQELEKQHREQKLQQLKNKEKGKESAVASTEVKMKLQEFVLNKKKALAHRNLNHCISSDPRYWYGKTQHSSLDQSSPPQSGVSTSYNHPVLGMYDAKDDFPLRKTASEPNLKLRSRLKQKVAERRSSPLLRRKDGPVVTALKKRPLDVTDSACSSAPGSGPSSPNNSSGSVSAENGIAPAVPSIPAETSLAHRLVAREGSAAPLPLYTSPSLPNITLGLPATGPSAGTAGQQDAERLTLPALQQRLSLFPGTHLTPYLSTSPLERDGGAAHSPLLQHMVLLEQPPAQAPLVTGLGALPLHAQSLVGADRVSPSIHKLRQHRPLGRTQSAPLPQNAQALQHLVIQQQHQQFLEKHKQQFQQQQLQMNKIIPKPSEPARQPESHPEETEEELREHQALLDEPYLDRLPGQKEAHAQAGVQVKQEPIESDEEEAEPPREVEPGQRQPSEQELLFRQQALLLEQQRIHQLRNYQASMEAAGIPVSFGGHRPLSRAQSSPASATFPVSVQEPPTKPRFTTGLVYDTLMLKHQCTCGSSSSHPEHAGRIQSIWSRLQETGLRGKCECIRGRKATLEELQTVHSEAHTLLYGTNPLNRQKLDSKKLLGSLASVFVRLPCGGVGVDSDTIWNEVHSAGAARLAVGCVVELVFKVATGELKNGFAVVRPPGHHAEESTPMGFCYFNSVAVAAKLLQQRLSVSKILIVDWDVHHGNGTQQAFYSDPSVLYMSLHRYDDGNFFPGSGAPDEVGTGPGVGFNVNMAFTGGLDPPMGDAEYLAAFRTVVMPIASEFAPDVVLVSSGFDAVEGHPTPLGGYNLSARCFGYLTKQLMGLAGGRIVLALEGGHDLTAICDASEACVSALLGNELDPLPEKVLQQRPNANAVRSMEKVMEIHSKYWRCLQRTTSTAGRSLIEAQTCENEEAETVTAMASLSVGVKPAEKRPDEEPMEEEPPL
VALUE KIND: IC50

Look at this compound and give its reported IC50. `CC(C)(C)c1ccc(C(=O)Nc2ccc(C(=O)NO)cc2)cc1` > 1000 nM

====

biological target: Protein deacetylase HDAC6 (Homo sapiens, UniProt Q9UBN7); experiment: Inhibition of HDAC6 in human HeLa cells incubated for 15 mins by ELISA; assay type: cell-based
VALUE KIND: IC50 (nM)
Numbers only, in nM.

Look at this molecule and give its reported IC50. `CC(C)(C)c1ccc(C(=O)Nc2ccc(C(=O)NO)cc2)cc1` 580

====

target: Histone deacetylase 11 (Homo sapiens, UniProt Q96DB2); test: Inhibition of recombinant full length human HDAC11 expressed in baculovirus infected Sf9 cells using FAM-RHKK-TFAc as substrate incubated for 17 hrs by electrophoretic mobility shift assay
Sequence (Q96DB2 whole entry): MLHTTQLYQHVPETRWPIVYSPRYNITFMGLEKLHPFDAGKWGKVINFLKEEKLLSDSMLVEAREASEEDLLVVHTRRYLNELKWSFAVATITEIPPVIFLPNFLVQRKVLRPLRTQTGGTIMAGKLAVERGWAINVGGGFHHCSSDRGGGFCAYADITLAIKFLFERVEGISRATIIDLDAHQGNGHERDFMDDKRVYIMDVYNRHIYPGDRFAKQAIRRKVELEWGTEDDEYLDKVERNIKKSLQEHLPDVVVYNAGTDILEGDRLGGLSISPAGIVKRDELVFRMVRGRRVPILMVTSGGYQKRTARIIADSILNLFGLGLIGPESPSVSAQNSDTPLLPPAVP
VALUE KIND: pIC50
One number for each entry, as −log10 of the molar value.

>  <TEST SMILES>
CN(CC(=O)N(Cc1ccc(C(C)(C)C)cc1)c1ccc(C(=O)NO)cc1)S(=O)(=O)c1ccc(F)cc1

>  <MEASURED TARGET>
Histone deacetylase 11 (Homo sapiens, UniProt Q96DB2)

>  <TEST RESULT>
6.16

$$$$

Continue with the next molecule.
Look at this molecule and give its reported pIC50. `O=C(NO)c1ccc(N(Cc2ccccc2)C(=O)CN(Cc2c(F)c(F)c(F)c(F)c2F)S(=O)(=O)c2ccc(F)cc2)cc1` 7.28

====

molecular target: Histone deacetylase 11 (Homo sapiens, UniProt Q96DB2); experiment: Inhibition of recombinant full length human HDAC11 expressed in baculovirus infected Sf9 cells using FAM-RHKK-TFAc as substrate incubated for 17 hrs by electrophoretic mobility shift assay
VALUE KIND: pIC50
Numbers only, as −log10 of the molar value.

>  <TEST SMILES>
CC(C)(C)OC(=O)N(Cc1ccc(C(C)(C)C)cc1)c1ccc(C(=O)NO)cc1

>  <pIC50>
6.08

$$$$

Continue with the next compound.
Look at this compound and give its reported pIC50. `CC(C)(C)c1ccc(CN(C(=O)CNS(=O)(=O)c2ccc(F)cc2)c2ccc(C(=O)NO)cc2)cc1` 6.18

====

I'd appreciate it if you could supply pIC50 values for the items below.
Biological target: Polyamine deacetylase HDAC10 (Homo sapiens, UniProt Q969S8)
Sequence (Q969S8 whole entry): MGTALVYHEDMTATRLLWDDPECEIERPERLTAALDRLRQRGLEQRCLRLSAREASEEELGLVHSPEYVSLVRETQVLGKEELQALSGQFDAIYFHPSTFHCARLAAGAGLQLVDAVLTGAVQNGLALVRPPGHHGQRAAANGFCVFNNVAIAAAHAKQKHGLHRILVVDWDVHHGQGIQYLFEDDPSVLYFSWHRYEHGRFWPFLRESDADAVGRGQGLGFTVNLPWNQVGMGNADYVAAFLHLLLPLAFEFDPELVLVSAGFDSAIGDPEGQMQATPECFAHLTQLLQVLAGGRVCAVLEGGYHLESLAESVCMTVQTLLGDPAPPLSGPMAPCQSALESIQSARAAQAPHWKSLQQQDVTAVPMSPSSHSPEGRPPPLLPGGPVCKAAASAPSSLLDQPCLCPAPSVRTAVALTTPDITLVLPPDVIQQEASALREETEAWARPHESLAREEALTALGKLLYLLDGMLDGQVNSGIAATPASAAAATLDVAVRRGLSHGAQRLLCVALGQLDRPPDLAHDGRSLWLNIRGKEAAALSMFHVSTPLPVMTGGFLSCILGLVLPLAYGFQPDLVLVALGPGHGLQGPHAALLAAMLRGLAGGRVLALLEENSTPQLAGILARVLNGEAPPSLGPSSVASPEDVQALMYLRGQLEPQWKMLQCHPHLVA
Assay: Inhibition of recombinant full length human HDAC10 expressed in baculovirus infected Sf9 cells using FAM-RHKK-Ac as substrate incubated for 17 hrs by electrophoretic mobility shift assay
Answers are plain numbers, as −log10 of the molar value.

Dear colleague, could you send me pIC50 for each of the items below? Thanks.
1. CC(C)(C)c1ccc(C(=O)Nc2ccc(C(=O)NO)cc2)cc1
2. Cn1cc(CNCC2CCN(c3ncc(C(=O)NO)cn3)CC2)c2ccccc21 [QUISINOSTAT]

[6.05, 8.71]
